tested on: MAGL (Homo sapiens, UniProt Q99685)
test description: In vitro competitive activity-based protein profiling, PC3 human cell membrane proteomes
Format: biochemical
Set-up: endogenous in cells; host or cells: PC3 human cells (membrane proteome)
condition details: human PC3 membrane proteome
readout label: IC50 (µM)

# annotated cases, reported IC50 shown
O=C(Nc1cccnn1)[C@H]1CC12CCN(C(=O)OC(C(F)(F)F)C(F)(F)F)CC2
0.0046
CC1(CNC(=O)C2CC23CCN(C(=O)OC(C(F)(F)F)C(F)(F)F)CC3)CCOCC1 (single isomer, unassigned) [Example 169]
0.21
O=C(Nc1ccon1)C1CC12CCN(C(=O)OC(C(F)(F)F)C(F)(F)F)CC2 (single isomer, unassigned) [Example 178]
0.0027

P. O=C(Nc1ccnnc1)C1CC12CCN(C(=O)OC(C(F)(F)F)C(F)(F)F)CC2 (single isomer, unassigned) [Example 109]
Q. O=C(Nc1cnc(C(F)(F)F)nc1)C1CC12CCN(C(=O)OC(C(F)(F)F)C(F)(F)F)CC2 (single isomer, unassigned)
INPUT: Which value of IC50 is greater, the one for P or the one for Q ? Lab note: record the label of whichever item you select.
OUTPUT: P

====

tested on: UniProt:Q99685
test description: In vitro competitive activity-based protein profiling, PC3 human cell membrane proteomes
Format: biochemical
Set-up: endogenous in cells; host or cells: PC3 human cells (membrane proteome)
condition details: human PC3 membrane proteome
readout label: IC50 (µM)

# annotated cases, reported IC50 shown
CNC(=O)c1ccc(NC(=O)C2CC23CCN(C(=O)OC(C(F)(F)F)C(F)(F)F)CC3)cn1 (single isomer, unassigned) [Example 32]
0.25
CC1(CNC(=O)C2CC23CCN(C(=O)OC(C(F)(F)F)C(F)(F)F)CC3)CCOCC1 (single isomer, unassigned) [Example 168]
0.0074
O=C(Nc1cnoc1)[C@@H]1CC12CCN(C(=O)OC(C(F)(F)F)C(F)(F)F)CC2 (single isomer, unassigned) [Example 15]
1
Cc1ncc(NC(=O)C2CC23CCN(C(=O)OC(C(F)(F)F)C(F)(F)F)CC3)cn1 (single isomer, unassigned) [Example 103]
0.0033
O=C(NCc1cncnc1)C1CC12CCN(C(=O)OC(C(F)(F)F)C(F)(F)F)CC2 (single isomer, unassigned) [Example 153]
0.077

1. O=C(NC(=O)C1CC12CCN(C(=O)OC(C(F)(F)F)C(F)(F)F)CC2)C1CCOCC1 (single isomer, unassigned) [Example 27]
2. CN1CCC(NC(=O)C2CC23CCN(C(=O)OC(C(F)(F)F)C(F)(F)F)CC3)CC1 (single isomer, unassigned) [Example 114]
3. O=C(NCC1CCOCC1)[C@@H]1CC12CCN(C(=O)OC(C(F)(F)F)C(F)(F)F)CC2 (single isomer, unassigned) [Example 118]
4. O=C(OC(C(F)(F)F)C(F)(F)F)N1CCC2(CC1)CC2C(=O)N1CCc2ncncc2C1 (single isomer, unassigned) [Example 60]
5. O=C(Nc1cncc(Cl)c1)C1CC12CCN(C(=O)OC(C(F)(F)F)C(F)(F)F)CC2 (single isomer, unassigned) [Example 66]
INPUT: I would appreciate it if you could sort these 5 compounds by IC50, starting from the smallest number. // respond by listing labels in the order requested
OUTPUT: 5, 4, 1, 3, 2
(5: 0.0042 µM, 4: 0.036 µM, 1: 0.056 µM, 3: 0.29 µM, 2: 2.6 µM)

I. CN(C(=O)C1CC12CCN(C(=O)OC(C(F)(F)F)C(F)(F)F)CC2)c1ccccn1 (single isomer, unassigned) [Example 45]
II. O=C(NC(=O)C1CC12CCN(C(=O)OC(C(F)(F)F)C(F)(F)F)CC2)C1CCCCC1 (single isomer, unassigned) [Example 90]
III. NC(=O)c1ccc(NC(=O)[C@H]2CC23CCN(C(=O)OC(C(F)(F)F)C(F)(F)F)CC3)cn1 (single isomer, unassigned) [Example 175]
IV. O=C(Nc1ccc(C(F)(F)F)nc1)C1CC12CCN(C(=O)OC(C(F)(F)F)C(F)(F)F)CC2 (single isomer, unassigned) [Example 78]
INPUT: I would appreciate it if you could sort these 4 compounds by IC50, starting from the smallest number. // respond by listing labels in the order requested
OUTPUT: III, II, IV, I

====

tested on: MAGL (Homo sapiens)
Sequence (Q99685 1-303): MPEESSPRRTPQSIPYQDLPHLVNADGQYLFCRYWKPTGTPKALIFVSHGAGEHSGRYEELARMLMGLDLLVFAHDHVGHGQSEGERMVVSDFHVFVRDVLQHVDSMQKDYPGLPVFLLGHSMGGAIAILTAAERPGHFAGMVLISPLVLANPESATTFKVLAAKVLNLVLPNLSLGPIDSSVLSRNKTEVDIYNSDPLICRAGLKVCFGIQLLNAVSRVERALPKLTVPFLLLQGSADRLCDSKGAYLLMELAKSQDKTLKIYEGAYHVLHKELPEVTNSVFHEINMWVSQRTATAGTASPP
test description: In vitro competitive activity-based protein profiling, PC3 human cell membrane proteomes
Format: biochemical
Design: endogenous in cells; host or cells: PC3 human cells (membrane proteome)
condition details: human PC3 membrane proteome
readout label: IC50 (µM)

O=C(NCc1ccccc1)[C@H]1CC12CCN(C(=O)OC(C(F)(F)F)C(F)(F)F)CC2 (single isomer, unassigned)
0.0031
Cc1ccc(NC(=O)C2CC23CCN(C(=O)OC(C(F)(F)F)C(F)(F)F)CC3)cc1 (single isomer, unassigned) [Example 144]
0.0052
O=C(NCc1ccccc1)[C@@H]1CC12CCN(C(=O)OC(C(F)(F)F)C(F)(F)F)CC2 (single isomer, unassigned)
0.031
O=C(OC(C(F)(F)F)C(F)(F)F)N1CCC2(CC1)CC2C(=O)N1CCc2cnc(C(F)(F)F)nc2C1 (single isomer, unassigned) [Example 58]
0.049
O=C(Nc1cncc(F)c1)C1CC12CCN(C(=O)OC(C(F)(F)F)C(F)(F)F)CC2 (single isomer, unassigned) [Example 39]
0.29

a. O=C(O)COc1ccc(NC(=O)C2CC23CCN(C(=O)OC(C(F)(F)F)C(F)(F)F)CC3)cn1 (single isomer, unassigned)
b. O=C(OC(C(F)(F)F)C(F)(F)F)N1CCC2(CC1)CC2C(=O)N1CCOCC1 (single isomer, unassigned) [Example 120]
c. O=C(Nc1ccnc(C(F)(F)F)n1)[C@@H]1CC12CCN(C(=O)OC(C(F)(F)F)C(F)(F)F)CC2 (single isomer, unassigned)
d. O=C(OC(C(F)(F)F)C(F)(F)F)N1CCC2(CC1)CC2C(=O)N1CCc2cncnc2C1 (racemic)
e. Cc1ccc(NC(=O)[C@H]2CC23CCN(C(=O)OC(C(F)(F)F)C(F)(F)F)CC3)nn1 (single isomer, unassigned)
INPUT: I would appreciate it if you could sort these 5 molecules by IC50, starting from the smallest number. // respond by listing labels in the order requested
OUTPUT: e, c, d, b, a
(e: 0.001 µM, c: 0.039 µM, d: 0.11 µM, b: 0.3 µM, a: 1.4 µM)

1. O=C(NC1CC2(COC2)C1)C1CC12CCN(C(=O)OC(C(F)(F)F)C(F)(F)F)CC2 (single isomer, unassigned) [Example 159]
2. CC(C)Oc1ccc(NC(=O)C2CC23CCN(C(=O)OC(C(F)(F)F)C(F)(F)F)CC3)cn1 (single isomer, unassigned) [Example 166]
INPUT: Min IC50? 1 | 2 Lab note: record the label of whichever item you select.
OUTPUT: 1
(1: 0.043 µM, 2: 0.13 µM)

====

tested on: UniProtKB Q99685
test description: In vitro competitive activity-based protein profiling, PC3 human cell membrane proteomes
Assay type: biochemical
Set-up: endogenous in cells; host or cells: PC3 human cells (membrane proteome)
condition details: human PC3 membrane proteome
readout label: IC50 (µM)

# annotated cases, reported IC50 shown
O=C(OC(C(F)(F)F)C(F)(F)F)N1CCC2(CC1)CC2C(=O)N1CCn2cc(C(F)(F)F)nc2C1 (single isomer, unassigned)
0.0048
O=C(NCc1cccnn1)C1CC12CCN(C(=O)OC(C(F)(F)F)C(F)(F)F)CC2 (single isomer, unassigned) [Example 157]
0.23
O=C(Nc1cncnc1)C1CC12CCN(C(=O)OC(C(F)(F)F)C(F)(F)F)CC2 (single isomer, unassigned) [Example 97]
0.2

I. O=C(Nc1cnoc1)[C@H]1CC12CCN(C(=O)OC(C(F)(F)F)C(F)(F)F)CC2 (single isomer, unassigned)
II. O=C(Nc1cccnc1C(F)(F)F)C1CC12CCN(C(=O)OC(C(F)(F)F)C(F)(F)F)CC2 (single isomer, unassigned) [Example 85]
III. O=C(NC1CCOCC1)[C@@H]1CC12CCN(C(=O)OC(C(F)(F)F)C(F)(F)F)CC2
INPUT: Thanks in advance: please rank these 3 entries by IC50, highest to lowest. // respond by listing labels in the order requested
OUTPUT: III, II, I
